target-or-test-system: T1, human serum albumin (human, UniProt P02768 25-609)
T1 construct: mature; Bought protein; biotinylated in the Octet and HTRF assays; also called HSA; HuSA
assay-info: SPR (Biacore T200), albumin amine-coupled to CM5, Affimer analyte, pH 7.4
Field: Kd. Provide a value for each of the binders that follow.
# number only, unit µM dropped from output

[in] Respond only with Kd recorded for HSA-18 (designed binder, also called HSA-18 monomer) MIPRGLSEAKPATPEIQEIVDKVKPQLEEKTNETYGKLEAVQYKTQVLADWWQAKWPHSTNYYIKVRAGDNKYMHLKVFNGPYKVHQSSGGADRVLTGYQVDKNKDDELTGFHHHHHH
[out] 0.146

[in] Respond only with Kd recorded for HSA-36 (designed binder) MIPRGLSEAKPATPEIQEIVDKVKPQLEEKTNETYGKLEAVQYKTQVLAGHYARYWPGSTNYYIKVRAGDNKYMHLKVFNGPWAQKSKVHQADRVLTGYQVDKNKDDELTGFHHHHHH
[out] 0.2

[in] Respond only with Kd recorded for HSA-20 (designed binder) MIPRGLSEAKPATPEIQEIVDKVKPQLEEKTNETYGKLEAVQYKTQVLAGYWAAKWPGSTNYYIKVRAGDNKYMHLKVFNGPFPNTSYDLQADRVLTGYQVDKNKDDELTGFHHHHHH
[out] 0.35

[in] Respond only with Kd recorded for HSA-41 (designed binder, also called HSA-41 parent; HSA-41 AH parent) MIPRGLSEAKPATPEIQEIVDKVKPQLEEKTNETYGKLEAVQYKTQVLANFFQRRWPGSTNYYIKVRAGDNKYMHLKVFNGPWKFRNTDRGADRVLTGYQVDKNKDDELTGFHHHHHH
[out] 0.00259
